Provenance of the data: patent US20100099610A1

molecular target: hGHQ40N (human, UniProt P01241 27-217); assay: cell-based or functional assay
Sequence (P01241 27-217 Q66N): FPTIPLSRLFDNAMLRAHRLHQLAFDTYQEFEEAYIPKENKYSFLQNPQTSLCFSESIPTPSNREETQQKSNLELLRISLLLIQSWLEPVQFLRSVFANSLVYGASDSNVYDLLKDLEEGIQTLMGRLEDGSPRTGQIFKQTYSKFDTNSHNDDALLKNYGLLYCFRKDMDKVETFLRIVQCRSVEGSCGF

binder: S. ladakanum GlyPro-TGase mutant S250Y (enzyme) GPDSDERVTPPAEPLDRMPDPYRPSYGRAETIVNNYIRKWQQVYSHRDGRKQQMTEEQREWLSYGCVGVTWVNSGQYPTNRLAFAFFDEDKYKNELKNGRPRSGETRAEFEGRVAKDSFDEAKGFQRARDVASVMNKALENAHDEGAYLDNLKKELANGNDALRNEDARSPFYSALRNTPSFKDRNGGNHDPSKMKAVIYSKHFWSGQDRSGSSDKRKYGDPEAFRPDRGTGLVDMSRDRNIPRSPTSPGEYFVNFDYGWFGAQTEADADKTVWTHGNHYHAPNGSLGAMHVYESKFRNWSDGYSDFDRGAYVVTFVPKSWNTAPDKVKQGWP
RSA Q141: 1.71 relative to wild type TGase

binder: S. ladakanum GlyPro-TGase mutant Y62M (enzyme) GPDSDERVTPPAEPLDRMPDPYRPSYGRAETIVNNYIRKWQQVYSHRDGRKQQMTEEQREWLSMGCVGVTWVNSGQYPTNRLAFAFFDEDKYKNELKNGRPRSGETRAEFEGRVAKDSFDEAKGFQRARDVASVMNKALENAHDEGAYLDNLKKELANGNDALRNEDARSPFYSALRNTPSFKDRNGGNHDPSKMKAVIYSKHFWSGQDRSGSSDKRKYGDPEAFRPDRGTGLVDMSRDRNIPRSPTSPGESFVNFDYGWFGAQTEADADKTVWTHGNHYHAPNGSLGAMHVYESKFRNWSDGYSDFDRGAYVVTFVPKSWNTAPDKVKQGWP
RSA Q141: 0.28 relative to wild type TGase
